Reported values of inhibition at 10 µM for individual entries
biological target: CDK5/CDK5R1 (Homo sapiens, UniProt Q00535); assay: NanoBRET live-cell target engagement, CDK5-NanoLuc/CDK5R1 in HEK-293; assay type: binding; settings: 10µM; independent experiment 2; read-out: CDK5/CDK5R1 Inhibition at 10µM (%)
Sequence (Q00535 whole entry): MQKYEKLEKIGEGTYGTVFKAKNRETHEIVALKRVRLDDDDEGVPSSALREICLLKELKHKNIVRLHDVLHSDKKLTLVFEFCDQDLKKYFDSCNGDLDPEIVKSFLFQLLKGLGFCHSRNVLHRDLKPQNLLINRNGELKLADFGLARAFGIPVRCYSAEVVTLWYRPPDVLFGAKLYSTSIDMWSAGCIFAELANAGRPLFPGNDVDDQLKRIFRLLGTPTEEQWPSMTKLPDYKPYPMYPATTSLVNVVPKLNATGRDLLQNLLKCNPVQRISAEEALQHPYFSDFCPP
Sequence (Q15078 whole entry partner): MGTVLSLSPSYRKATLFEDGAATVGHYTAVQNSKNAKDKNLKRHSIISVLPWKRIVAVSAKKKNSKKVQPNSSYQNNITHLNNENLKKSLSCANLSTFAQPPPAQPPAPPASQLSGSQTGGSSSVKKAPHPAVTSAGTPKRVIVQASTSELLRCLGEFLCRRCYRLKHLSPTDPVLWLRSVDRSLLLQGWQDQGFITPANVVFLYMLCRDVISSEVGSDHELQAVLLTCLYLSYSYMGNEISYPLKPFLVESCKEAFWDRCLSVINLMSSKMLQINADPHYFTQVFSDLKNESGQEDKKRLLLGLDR
MEASURE: inhibition at 10 µM (%)

>>> df
                                   compound              measure  reported_value
0  CN(C)C/C=C/C(=O)Nc1ccc(C(=O)N2CCC[C@@H](Nc3ncc(Cl)c(-c4c[nH]c5ccccc45)n3)C2)cc1 [THZ531]  inhibition at 10 µM            59.9
1  CN(C)C(=O)c1cc2cnc(Nc3ccc(N4CCNCC4)cn3)nc2n1C1CCCC1 [Ribociclib]  inhibition at 10 µM           -26.5
2  COCCN1CCN(Cc2ccc(-c3n[nH]c4c3C(=O)c3c(NC(=O)NN5CCOCC5)cccc3-4)cc2)CC1 [RGB286638]  inhibition at 10 µM            97.2
3  CC(C)[C@H](CO)Nc1nc(Nc2ccc(C(=O)O)c(Cl)c2)c2ncn(C(C)C)c2n1 [Purvalanol B]  inhibition at 10 µM              91

----------
biological target: CDK3/Cyclin E1 (Homo sapiens, UniProt Q00526); experiment: NanoBRET live-cell target engagement, CDK3-NanoLuc/Cyclin E1 in HEK-293; type: binding; conditions: 10µM; average of experiments
Sequence (Q00526 whole entry): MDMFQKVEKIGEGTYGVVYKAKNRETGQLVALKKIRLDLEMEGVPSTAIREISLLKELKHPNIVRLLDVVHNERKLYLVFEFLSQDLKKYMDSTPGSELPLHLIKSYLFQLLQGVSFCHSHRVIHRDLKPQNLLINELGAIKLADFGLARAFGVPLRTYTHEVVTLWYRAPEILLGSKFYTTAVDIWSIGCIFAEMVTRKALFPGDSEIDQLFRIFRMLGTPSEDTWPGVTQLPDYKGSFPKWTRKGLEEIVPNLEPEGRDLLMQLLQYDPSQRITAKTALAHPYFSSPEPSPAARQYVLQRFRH
Sequence (P24864 whole entry partner): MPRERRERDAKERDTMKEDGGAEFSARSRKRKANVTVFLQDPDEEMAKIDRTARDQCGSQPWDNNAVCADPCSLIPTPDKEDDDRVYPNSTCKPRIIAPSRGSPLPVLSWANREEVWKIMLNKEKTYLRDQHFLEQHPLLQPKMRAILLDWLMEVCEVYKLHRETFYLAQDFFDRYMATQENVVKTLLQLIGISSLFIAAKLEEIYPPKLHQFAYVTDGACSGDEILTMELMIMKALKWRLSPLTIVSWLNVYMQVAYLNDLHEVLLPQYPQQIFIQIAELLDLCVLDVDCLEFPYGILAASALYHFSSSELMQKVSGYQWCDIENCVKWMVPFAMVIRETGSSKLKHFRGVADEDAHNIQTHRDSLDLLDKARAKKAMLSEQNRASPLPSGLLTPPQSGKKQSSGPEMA
MEASURE: CDK3/E1 Inhibition at 10µM (%)

>>> print(df.to_string())
                                   compound                               system_name  reported_value
0  CN(C)C/C=C/C(=O)Nc1ccc(C(=O)Nc2cccc(Nc3ncc(Cl)c(-c4c[nH]c5ccccc45)n3)c2)cc1 [THZ1]  CDK3/Cyclin E1 (Homo sapiens, UniProt Q00526)           55.0%
1  Cc1c(Br)c(Br)c2c3c1nc(N1CCNCC1)n3CCC2.Cl [SEL 120-34A]  CDK3/Cyclin E1 (Homo sapiens, UniProt Q00526)           33.7%
2  O=C1NCCc2[nH]c(-c3ccncc3)cc21 [PHA-767491]  CDK3/Cyclin E1 (Homo sapiens, UniProt Q00526)           31.6%
3  O=C1NC(=NCc2cccs2)S/C1=C\c1ccc2ncccc2c1 [RO-3306]  CDK3/Cyclin E1 (Homo sapiens, UniProt Q00526)           74.0%

----------
biological target: CDK6/Cyclin D1 (Homo sapiens, UniProt Q00534); test: NanoBRET live-cell target engagement, NanoLuc-CDK6/Cyclin D1 in HEK-293; type: binding; details: CDK6/D1; read-out: IC50 (nM) Replicate 2
Sequence (Q00534 whole entry): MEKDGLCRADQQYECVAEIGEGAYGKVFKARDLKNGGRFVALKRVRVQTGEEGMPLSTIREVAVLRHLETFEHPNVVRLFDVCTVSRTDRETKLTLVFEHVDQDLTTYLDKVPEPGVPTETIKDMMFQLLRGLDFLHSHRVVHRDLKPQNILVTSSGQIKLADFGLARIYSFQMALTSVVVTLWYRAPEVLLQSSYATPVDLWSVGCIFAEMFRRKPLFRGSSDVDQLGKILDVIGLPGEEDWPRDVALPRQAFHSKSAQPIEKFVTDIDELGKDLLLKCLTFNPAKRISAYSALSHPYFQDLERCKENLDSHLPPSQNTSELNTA
Sequence (P24385 whole entry partner): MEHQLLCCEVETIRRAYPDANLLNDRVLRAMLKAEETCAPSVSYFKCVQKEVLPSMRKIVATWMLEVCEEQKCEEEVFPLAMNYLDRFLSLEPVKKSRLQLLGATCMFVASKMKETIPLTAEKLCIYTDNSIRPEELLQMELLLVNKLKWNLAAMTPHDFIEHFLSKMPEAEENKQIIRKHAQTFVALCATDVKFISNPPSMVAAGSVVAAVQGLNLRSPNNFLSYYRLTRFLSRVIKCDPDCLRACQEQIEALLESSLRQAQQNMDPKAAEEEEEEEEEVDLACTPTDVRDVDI
MEASURE: IC50 (nM)

                                   compound  units_of_measure  reported_value
0  CCCCOc1c(C(=O)c2c(F)cc(C)cc2F)c[nH]c2nncc1-2 [BMS-265246]                nM              70
1  CC(C)c1cnn2c(NCc3ccccc3)cc(N[C@@H](CO)[C@H](O)CO)nc12 [BS-194]                nM             580
2  CNC1CCN(C(=O)c2ccc(Nc3ncc(F)c(-c4cnc(C)n4C(C)C)n3)cc2)C1 (stereo not shown) [AZD5597]                nM             6.5
3  C[C@H]1CC[C@H](n2c3cnccc3c3cnc(Nc4ccc5c(n4)CCN(C(=O)CO)C5)nc32)CC1 [AMG 925]                nM             3.9
